- Tested on: A204
- Assay Comment: Cytotoxicity against human A204 cells after 24 hrs by soft agar colony forming assay
- Assay type: functional, cell-based
- Condition Notes: A204, 24 h
Kindly state IC50 for each of the entries shown.
Please respond with the number in µg/mL and leave the unit unwritten.

Challenge: Quick check: IC50 of C/C=C1/C[C@@H](C)[C@@](C)(O)C(=O)OC/C2=C/CN(C)CC[C@@H](OC1=O)C2=O ?
Response given: 221

Challenge: Quick check: IC50 of C/C=C1/C[C@@H](C)[C@@](C)(O)C(=O)OCC2=CCN3CC[C@@H](OC1=O)[C@@H]23 ?
Response given: 150

Challenge: Quick check: IC50 of C/C=C1/C[C@@H](C)[C@](O)(CO)C(=O)OC/C2=C/CN(C)CC[C@@H](OC1=O)C2=O [HYDROXYSENKIRKINE] ?
Response given: 360

* * *

- Test system: A204
- Assay Comment: Cytotoxicity against human A204 cells after 24 hrs by soft agar colony forming assay
- Assay type: functional, cell-based
- Condition Notes: A204, 24 h
Kindly state IC50 for each of the entries shown.
Please respond with the number in µg/mL and leave the unit unwritten.

Challenge: Quick check: IC50 of C[C@@H]1C/C(=C\CO)C(=O)O[C@@H]2CCN(C)C/C=C(/COC(=O)[C@]1(C)O)C2=O ?
Response given: 153

Challenge: Quick check: IC50 of C/C=C1\C[C@@H](C)[C@](O)(CO)C(=O)OCC2=CCN3CC[C@@H](OC1=O)[C@@H]23 ?
Response given: 120

Challenge: Quick check: IC50 of C[C@@H]1C[C@@]2(O[C@H]2C)C(=O)O[C@@H]2CCN(C)C/C=C(/COC(=O)[C@]1(C)O)C2=O ?
Response given: 130

Challenge: Quick check: IC50 of C/C=C1\C[C@@H](C)[C@@](C)(O)C(=O)OC/C2=C/CN(C)CC[C@@H](OC1=O)C2=O ?
Response given: 260

Challenge: Quick check: IC50 of C/C=C1\C[C@@H](C)[C@@](C)(O)C(=O)OCC2=CCN3CC[C@@H](OC1=O)[C@@H]23 ?
Response given: 120

Challenge: Quick check: IC50 of C/C=C1/C[C@@H](C)[C@@](C)(O)C(=O)OCC2=CC[N+]3([O-])CC[C@@H](OC1=O)[C@@H]23 (some centres not stated) [SENECIONINE N-OXIDE] ?
Response given: 150

Challenge: Quick check: IC50 of C[C@H]1C(=O)O[C@@H]2CCN3CC=C(COC(=O)[C@](C)(O)[C@]1(C)O)[C@H]23 ?
Response given: 316
